- systemUnderTest: S1P3 (Homo sapiens)
- Construct: host or cells: HEK293 (transient transfection)
- Sequence (P32121 whole entry): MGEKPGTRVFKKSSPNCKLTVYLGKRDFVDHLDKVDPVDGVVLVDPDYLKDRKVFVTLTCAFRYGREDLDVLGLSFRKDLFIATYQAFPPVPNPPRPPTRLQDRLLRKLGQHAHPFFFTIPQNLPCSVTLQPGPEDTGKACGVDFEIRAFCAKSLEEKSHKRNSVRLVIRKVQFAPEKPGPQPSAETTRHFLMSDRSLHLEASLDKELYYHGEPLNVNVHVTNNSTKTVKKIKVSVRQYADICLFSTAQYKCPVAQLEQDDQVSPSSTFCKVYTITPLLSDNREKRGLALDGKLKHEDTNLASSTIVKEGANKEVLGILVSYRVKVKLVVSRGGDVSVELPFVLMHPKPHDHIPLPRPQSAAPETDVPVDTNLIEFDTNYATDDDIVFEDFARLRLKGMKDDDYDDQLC
- Sequence (Q99500 whole entry): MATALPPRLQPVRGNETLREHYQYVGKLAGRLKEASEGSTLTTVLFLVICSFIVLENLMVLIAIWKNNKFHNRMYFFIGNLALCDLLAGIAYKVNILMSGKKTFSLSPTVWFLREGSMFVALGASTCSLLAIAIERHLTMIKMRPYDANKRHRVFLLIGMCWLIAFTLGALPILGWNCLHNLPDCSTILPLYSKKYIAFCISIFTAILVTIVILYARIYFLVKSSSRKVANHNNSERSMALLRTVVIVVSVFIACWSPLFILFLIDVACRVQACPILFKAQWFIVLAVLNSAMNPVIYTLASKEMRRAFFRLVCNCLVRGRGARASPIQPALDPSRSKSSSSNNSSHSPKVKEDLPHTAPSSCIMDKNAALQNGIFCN
- assayText: S1P3 Tango β-arrestin recruitment assay in HEK293 cells (Assay 5)
- Assay type: cell-based
- conditionContext: * = rEC50 measured rather than EC50, read-out: Assay 5 rEC50 (relative EC50, cells marked *)
reportedMetric: EC50

{"columns": ["chemicalStructure", "EC50"],
 "data": [
  ["CC(C)Oc1ccc(-c2nnc(-c3cc(F)c(OC[C@H](N)[C@H](C)OP(=O)(O)O)cc3Cl)s2)cc1Cl", "> 250 nM"]
]}

[ask] Would you mind telling me what EC50 value was observed for `CC(C)Nc1ccc(-c2nnc(-c3cc(F)c(OC[C@H](N)COP(=O)(O)O)cc3Cl)s2)cn1` ?
[reply] > 250 nM

[ask] Check `CC(C)Oc1ccc(-c2nnc(-c3cc(F)c(OC[C@@H](N)COP(=O)(O)O)cc3Cl)s2)cc1Br` too.
[reply] ≤ 250 nM

src = patent US20100249071A1
